Cited source for all entries: ChEMBL document CHEMBL1275404

- measuredOn: UniProt:P15144
- Sequence (P15144 whole entry): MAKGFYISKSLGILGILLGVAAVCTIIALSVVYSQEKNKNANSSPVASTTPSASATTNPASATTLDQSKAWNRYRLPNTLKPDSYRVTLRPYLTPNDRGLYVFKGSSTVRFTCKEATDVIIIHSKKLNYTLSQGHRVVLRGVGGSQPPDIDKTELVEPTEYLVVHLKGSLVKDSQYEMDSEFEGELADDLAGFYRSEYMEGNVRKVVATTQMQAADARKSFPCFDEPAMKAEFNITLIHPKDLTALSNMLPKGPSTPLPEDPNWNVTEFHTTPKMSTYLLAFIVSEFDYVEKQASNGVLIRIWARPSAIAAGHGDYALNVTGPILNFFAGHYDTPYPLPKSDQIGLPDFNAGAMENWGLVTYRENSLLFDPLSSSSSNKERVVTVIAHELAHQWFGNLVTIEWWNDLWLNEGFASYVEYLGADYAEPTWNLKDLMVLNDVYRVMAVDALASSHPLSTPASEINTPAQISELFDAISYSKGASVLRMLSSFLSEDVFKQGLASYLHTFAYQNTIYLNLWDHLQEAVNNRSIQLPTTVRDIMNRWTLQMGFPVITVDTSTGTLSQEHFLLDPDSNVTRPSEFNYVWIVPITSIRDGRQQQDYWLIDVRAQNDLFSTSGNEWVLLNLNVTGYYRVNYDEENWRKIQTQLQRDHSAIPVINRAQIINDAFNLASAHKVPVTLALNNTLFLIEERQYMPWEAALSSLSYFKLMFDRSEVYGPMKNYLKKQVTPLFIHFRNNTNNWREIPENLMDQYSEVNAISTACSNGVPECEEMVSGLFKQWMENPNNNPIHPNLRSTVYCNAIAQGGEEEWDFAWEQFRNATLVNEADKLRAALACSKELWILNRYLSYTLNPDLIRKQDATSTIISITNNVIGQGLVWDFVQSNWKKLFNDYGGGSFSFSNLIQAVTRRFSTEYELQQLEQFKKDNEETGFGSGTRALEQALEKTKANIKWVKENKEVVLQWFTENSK
- protocolText: Inhibition of catalytic activity of human recombinant aminopeptidase N expressed in HEK293 cells
pKi: −log10 of the molar value.
quantityKind: pKi

N[C@H]1CCSSC[C@@H](C(=O)NCc2ccccc2CC(=O)O)NC(=O)C[C@H](Cc2ccc(O)cc2)NC1=O
5.14
N[C@H]1CCSSC[C@H](C(=O)NCc2ccccc2CC(=O)O)NC(=O)C[C@H](Cc2ccc(O)cc2)NC1=O
4.97
